Exercise: for every item that follows, state its recorded Residual activity (%) WT Mean.
- MEASURED_ON: FER^WT (Homo sapiens)
- Sequence (P16591 448-820): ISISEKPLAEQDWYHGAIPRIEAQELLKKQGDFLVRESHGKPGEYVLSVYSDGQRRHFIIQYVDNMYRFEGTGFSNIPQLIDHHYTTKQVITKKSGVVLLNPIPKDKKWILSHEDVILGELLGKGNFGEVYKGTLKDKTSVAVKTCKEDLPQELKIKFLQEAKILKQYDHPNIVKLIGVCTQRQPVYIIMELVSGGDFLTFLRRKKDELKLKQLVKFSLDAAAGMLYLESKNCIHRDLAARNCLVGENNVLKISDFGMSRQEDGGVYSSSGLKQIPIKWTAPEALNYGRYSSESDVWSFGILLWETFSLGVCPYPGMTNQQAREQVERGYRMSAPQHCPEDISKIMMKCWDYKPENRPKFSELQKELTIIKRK
- EXPERIMENTAL_DETAILS: In vitro TR-FRET kinase assay
- STATED_CONDITIONS: log[inhibitor] (M) -6
Answers are plain numbers, in %.

>>> df
                                   compound   reading
0  COc1ccccc1Nc1ncc(Cl)c(Nc2ccccc2S(=O)(=O)C(C)C)n1  -0.06836
1  C#CCOc1ccc(Nc2ncc(Cl)c(Nc3ccccc3NC(=O)C=C)n2)c(OC)c1   14.1153
2  CCC(=O)Nc1ccccc1Nc1nc(Nc2ccccc2OC)ncc1Cl   19.5081

Then there is this compound:
## Input Observed Residual activity (%) WT Mean on FER^WT (Homo sapiens) for C=CC(=O)Nc1ccccc1Nc1nc(Nc2ccccc2OC)ncc1Cl , please.
## Output 19.305
